- System: HBsAg
- Experiment notes: HBsAg assay (CLIA of secreted HBsAg in HepG2.2.15 culture supernatant)
- Type: cell-based, HBV
- Experimental context: Hepatitis B virus, HepG2.2.15, read-out: IC50 (HBsAg assay)
Assign IC50 to each entry below.

// fetch HBsAg IC50 for "COc1cc(C(=O)N2CCc3nc(-c4ccccn4)ncc3C2)cc(OC)c1OC"
8.23 µM

// fetch HBsAg IC50 for "O=C(c1ccc(F)cc1)N1CCc2nc(-c3ccccn3)ncc2C1"
16.4 µM

// fetch HBsAg IC50 for CC1c2cnc(-c3ccccn3)nc2CCN1C(=O)c1ncco1 (stereo not drawn)
2.61 µM

// fetch HBsAg IC50 for "CCOc1ccc(C(=O)N2CCc3nc(-c4ccccn4)ncc3C2)cc1F"
6.56 µM

// fetch HBsAg IC50 for CC1c2cnc(-c3ccccn3)nc2CCN1C(=O)c1nccs1 (stereo not drawn)
0.627 µM

// fetch HBsAg IC50 for "O=C(c1ccc(F)c(O)c1)N1CCc2nc(-c3ccccn3)ncc2C1"
21 µM

// fetch HBsAg IC50 for Cc1ccc(C(=O)N2CCc3nc(-c4ccccn4)ncc3C2C)s1 (stereo not drawn)
0.326 µM

// fetch HBsAg IC50 for "O=C(c1ccc(O)c(F)c1)N1CCc2nc(-c3ccccn3)ncc2C1"
21.4 µM

// fetch HBsAg IC50 for "COc1ccc(C(=O)N2CCc3nc(-c4ccccn4)ncc3C2)cn1"
3.97 µM
